Catalogue of Vd readings, one per entry.
# protocol.text: Volume of distribution at steady state in Wistar rat at 2 mg/kg, iv and 10 mg/kg, po
# Assay type: ADME, organism-based
# cond: in vivo, read-out: Vdss
Respond numerically; units are L/kg and should not be typed.

The examples below pair each entry with its known result.
>>> observed_result("CCN1CCN(CCCOc2ccc(-c3cc4c(ncn4C)c(C#N)n3)cc2C(F)(F)F)CC1")
2
>>> observed_result("Cn1cnc2c(C#N)nc(-c3ccc(OCc4ccccn4)c(C(F)(F)F)c3)cc21")
0.7

Query molecule follows.
Measured Vd of CN(C)CCCOc1ccc(-c2cc3c(ncn3C)c(C#N)n2)cc1C(F)(F)F : 58

These data points were gathered from ChEMBL document CHEMBL1208745.
